experiment: Half life in cynomolgus monkey at 10 mg/kg, po; type: ADME, organism-based, Macaca fascicularis; set-up: dose 10 mg/kg, route oral; settings: in vivo
RECORDED ENDPOINT: half-life (h)
Numeric only. Scale: h

Incoming: What value of half-life has been recorded for this entry: Cl.Cl.Nc1nc(-c2ccccc2)c2c(n1)-c1cc(CN3CCCC3)ccc1C2=O
Outgoing: 3.2

---

experiment: Half life in BALB/c mouse at 10 mg/kg, po; assay type: ADME, organism-based; parameters: dose 10 mg/kg, route oral; settings: in vivo
RECORDED ENDPOINT: half-life (min)
Numeric only. Scale: min

Incoming: What value of half-life has been recorded for this entry: Cl.Cl.Nc1nc(-c2ccccc2)c2c(n1)-c1cc(CN3CCCC3)ccc1C2=O
Outgoing: 48

---

experiment: Oral bioavailability in cynomolgus monkey at 10 mg/kg; format: ADME, organism-based, Macaca fascicularis; details: in vivo
RECORDED ENDPOINT: bioavailability (%)
Numeric only. Scale: %

Incoming: What value of bioavailability has been recorded for this entry: Cl.Cl.Nc1nc(-c2ccccc2)c2c(n1)-c1cc(CN3CCCC3)ccc1C2=O
Outgoing: 39

---

test: Oral bioavailability in BALB/c mouse at 10 mg/kg; assay type: ADME, organism-based; details: in vivo
RECORDED ENDPOINT: bioavailability (%)
Numeric only. Scale: %

Incoming: What value of bioavailability has been recorded for this entry: Cl.Cl.Nc1nc(-c2ccccc2)c2c(n1)-c1cc(CN3CCCC3)ccc1C2=O
Outgoing: 100

---

experiment: Cmax in cynomolgus monkey plasma at 10 mg/kg, po; assay type: ADME, organism-based, Macaca fascicularis; parameters: dose 10 mg/kg, route oral
RECORDED ENDPOINT: Cmax (nM)
Numeric only. Scale: nM

Incoming: What value of Cmax has been recorded for this entry: Cl.Cl.Nc1nc(-c2ccccc2)c2c(n1)-c1cc(CN3CCCC3)ccc1C2=O
Outgoing: 626

---

assay: Oral bioavailability in Sprague-Dawley rat at 10 mg/kg; type: ADME, organism-based; details: in vivo
RECORDED ENDPOINT: bioavailability

Incoming: What value of bioavailability has been recorded for this entry: Cl.Cl.Nc1nc(-c2ccccc2)c2c(n1)-c1cc(CN3CCCC3)ccc1C2=O
Outgoing: 64%

---

biological target: Adenosine receptor A1 (Homo sapiens, UniProt P30542); test: Antagonist activity at adenosine A1 receptor
Sequence (P30542 whole entry): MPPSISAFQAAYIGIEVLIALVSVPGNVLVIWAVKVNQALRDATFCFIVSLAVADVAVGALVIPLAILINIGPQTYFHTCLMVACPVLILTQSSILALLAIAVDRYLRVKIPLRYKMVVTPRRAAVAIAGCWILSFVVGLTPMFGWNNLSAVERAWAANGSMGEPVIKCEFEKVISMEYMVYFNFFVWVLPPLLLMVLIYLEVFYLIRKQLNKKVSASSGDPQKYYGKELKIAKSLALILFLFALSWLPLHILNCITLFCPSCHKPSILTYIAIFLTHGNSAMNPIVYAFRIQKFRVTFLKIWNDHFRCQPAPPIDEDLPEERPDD
RECORDED ENDPOINT: Ki
Remember to put the unit after the number in your answer.

Incoming: What value of Ki has been recorded for this entry: Cl.Cl.Nc1nc(-c2ccccc2)c2c(n1)-c1cc(CN3CCCC3)ccc1C2=O
Outgoing: 0.017 µM

The measurements presented in this section are drawn from ChEMBL document CHEMBL1275389.
